Data provenance: patent US20240270874A1

Below, each of the binders is paired with its reported pEC50 value.
# Target System: T1, human KLB on CHOK1-hKLB cells (human, UniProt Q86Z14 1-1044)
# T1 construct: whole, on cells; also called human KLB antigen; β-Klotho
# T1 sequence (looked up): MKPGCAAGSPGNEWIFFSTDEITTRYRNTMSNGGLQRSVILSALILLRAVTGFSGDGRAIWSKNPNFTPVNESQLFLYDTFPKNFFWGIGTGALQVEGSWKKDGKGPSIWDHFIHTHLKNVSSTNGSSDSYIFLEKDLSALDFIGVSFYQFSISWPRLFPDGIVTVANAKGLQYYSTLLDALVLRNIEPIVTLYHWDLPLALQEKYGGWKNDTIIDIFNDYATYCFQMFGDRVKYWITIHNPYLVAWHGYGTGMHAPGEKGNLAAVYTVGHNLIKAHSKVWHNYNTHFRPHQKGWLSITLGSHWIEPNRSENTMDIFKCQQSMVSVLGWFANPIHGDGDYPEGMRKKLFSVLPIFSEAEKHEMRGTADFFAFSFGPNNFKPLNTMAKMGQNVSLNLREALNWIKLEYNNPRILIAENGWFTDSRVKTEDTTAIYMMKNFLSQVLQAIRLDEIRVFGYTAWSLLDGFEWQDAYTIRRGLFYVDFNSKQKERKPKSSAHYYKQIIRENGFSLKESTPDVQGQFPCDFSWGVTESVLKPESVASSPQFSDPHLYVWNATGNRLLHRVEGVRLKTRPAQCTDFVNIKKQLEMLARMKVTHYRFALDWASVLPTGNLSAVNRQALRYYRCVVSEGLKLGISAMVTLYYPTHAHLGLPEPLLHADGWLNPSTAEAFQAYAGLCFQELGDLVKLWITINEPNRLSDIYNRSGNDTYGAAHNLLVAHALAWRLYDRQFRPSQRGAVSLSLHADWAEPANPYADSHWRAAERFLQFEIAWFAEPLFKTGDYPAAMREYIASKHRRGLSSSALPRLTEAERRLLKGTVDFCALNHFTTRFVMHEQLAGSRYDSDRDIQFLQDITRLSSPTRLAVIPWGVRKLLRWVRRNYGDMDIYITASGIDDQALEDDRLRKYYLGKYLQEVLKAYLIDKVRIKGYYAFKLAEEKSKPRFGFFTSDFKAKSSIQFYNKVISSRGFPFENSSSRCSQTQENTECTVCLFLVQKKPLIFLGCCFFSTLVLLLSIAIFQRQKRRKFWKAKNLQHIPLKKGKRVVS
# Experiment: flow cytometry on CHOK1-hKLB cells
Please keep in mind that pEC50 is minus log10 of the molar concentration; only the number is needed.

Binder	Measurement Kind	Observed Result
hAb18-1 (antibody, human IgG1, kappa, L234A L235A, V domains shown, humanized mAb-18: hAb18VH1 + hAb18VL1; human IgG1 (L234A, L235A) / kappa constant regions) VH: EVQLVQSGAEVKKPGASVKVSCKASGYTFTDYAMHWVRQAPGQRLEWMGVISTYSGTTNYNQNFKGRVTITVDKSASTAYMELSSLRSEDTAVYYCARSGPLDYWGQGTTVTVSS VL: EIVLTQSPDFQSVTPKEKVTITCRASSSVSSSYLHWYQQKPDQSPKLWIYSTSNLASGVPSRFSGSGSGTDFTLTINSLEAEDAATYYCQQYSGYPLTFGQGTKLEIKR	pEC50	8.87
hAb18-3 (antibody, human IgG1, kappa, L234A L235A, V domains shown, humanized mAb-18: hAb18VH2 + hAb18VL1; human IgG1 (L234A, L235A) / kappa constant regions) VH: EVQLVQSGAEVKKPGASVKVSCKGSGYTFTDYAMHWVRQAPGQRLEWMGVISTYSGTTNYNQNFKGRVTVTVDKSASTAYMELSSLRSEDTAVYYCARSGPLDYWGQGTTVTVSS VL: EIVLTQSPDFQSVTPKEKVTITCRASSSVSSSYLHWYQQKPDQSPKLWIYSTSNLASGVPSRFSGSGSGTDFTLTINSLEAEDAATYYCQQYSGYPLTFGQGTKLEIKR	pEC50	8.72

Measured pEC50 of hAb18-6 (antibody, human IgG1, kappa, L234A L235A, V domains shown, humanized mAb-18: hAb18VH3 + hAb18VL2; human IgG1 (L234A, L235A) / kappa constant regions) VH: EVQLVQSGAEVKKPGASVKVSCKGSGYTFTDYAMHWVRQAPGQRLEWIGVISTYSGTTNYNQNFKGRATVTVDKSASTAYMELSSLRSEDTAVYYCARSGPLDYWGQGTTVTVSS VL: ENVLTQSPDFQSVTPKEKVTITCRASSSVSSSYLHWYQQKPDQSPKLWIYSTSNLASGVPSRFSGSGSGTDYTLTINSLEAEDAATYYCQQYSGYPLTFGQGTKLEIKR : 8.70
